Assay: Cell growth / viability of MT-4 cells (cytotoxicity)
Assay type: cell-based
Details: human, day 5, read-out: CC0 (concentration that reduces viability of MT-4 cells; minimum cytotoxic concentration)
# MCC at 120 h per entry
Numeric only. Scale: µg/mL

Answered cases to consult:
compound	unitName	dataValue
CCCCCCCCCCCC(=O)O[C@@]12[C@H](OC(=O)C(C)CC)[C@@H](C)[C@@]3(O)[C@@H](C=C(CO)C[C@]4(O)C(=O)C(C)=C[C@@H]34)[C@@H]1C2(C)C (stereo partly shown)	µg/mL	62.5
CC(=O)OCC1=C[C@H]2[C@@H]3C(C)(C)[C@]3(OC(C)=O)[C@H](OC(C)=O)[C@@H](C)[C@]2(O)[C@@H]2C=C(C)C(=O)[C@]2(O)C1 [Compound 21, 4α-Phorbol-12,13,20-triacetate]	µg/mL	500
CCCCC/C=C\C/C=C\CCCCCCCC(=O)OCC1=C[C@H]2[C@@H]3C(C)(C)[C@]3(OC(C)=O)[C@H](O)[C@@H](C)[C@]2(O)[C@@H]2C=C(C)C(=O)[C@@]2(O)C1	µg/mL	62.5

Form field: reported MCC at 120 h of CCCCC/C=C\C/C=C\CCCCCCCC(=O)OCC1=C[C@H]2[C@@H]3C(C)(C)[C@]3(OC(C)=O)[C@H](OC(C)=O)[C@@H](C)[C@]2(O)[C@@H]2C=C(C)C(=O)[C@@]2(O)C1 [Compound 13, Phorbol-12,13-diacetate-20-linoleate]
62.5
